Recorded pEC50, one value per entry.
target: CFTR-G1349D (Homo sapiens, UniProt P13569, G1349D); construct: expressed in transfected cells; assay: YFP-halide influx assay for the CFTR-G1349D; format: cell-based
Sequence (P13569 whole entry G1349D): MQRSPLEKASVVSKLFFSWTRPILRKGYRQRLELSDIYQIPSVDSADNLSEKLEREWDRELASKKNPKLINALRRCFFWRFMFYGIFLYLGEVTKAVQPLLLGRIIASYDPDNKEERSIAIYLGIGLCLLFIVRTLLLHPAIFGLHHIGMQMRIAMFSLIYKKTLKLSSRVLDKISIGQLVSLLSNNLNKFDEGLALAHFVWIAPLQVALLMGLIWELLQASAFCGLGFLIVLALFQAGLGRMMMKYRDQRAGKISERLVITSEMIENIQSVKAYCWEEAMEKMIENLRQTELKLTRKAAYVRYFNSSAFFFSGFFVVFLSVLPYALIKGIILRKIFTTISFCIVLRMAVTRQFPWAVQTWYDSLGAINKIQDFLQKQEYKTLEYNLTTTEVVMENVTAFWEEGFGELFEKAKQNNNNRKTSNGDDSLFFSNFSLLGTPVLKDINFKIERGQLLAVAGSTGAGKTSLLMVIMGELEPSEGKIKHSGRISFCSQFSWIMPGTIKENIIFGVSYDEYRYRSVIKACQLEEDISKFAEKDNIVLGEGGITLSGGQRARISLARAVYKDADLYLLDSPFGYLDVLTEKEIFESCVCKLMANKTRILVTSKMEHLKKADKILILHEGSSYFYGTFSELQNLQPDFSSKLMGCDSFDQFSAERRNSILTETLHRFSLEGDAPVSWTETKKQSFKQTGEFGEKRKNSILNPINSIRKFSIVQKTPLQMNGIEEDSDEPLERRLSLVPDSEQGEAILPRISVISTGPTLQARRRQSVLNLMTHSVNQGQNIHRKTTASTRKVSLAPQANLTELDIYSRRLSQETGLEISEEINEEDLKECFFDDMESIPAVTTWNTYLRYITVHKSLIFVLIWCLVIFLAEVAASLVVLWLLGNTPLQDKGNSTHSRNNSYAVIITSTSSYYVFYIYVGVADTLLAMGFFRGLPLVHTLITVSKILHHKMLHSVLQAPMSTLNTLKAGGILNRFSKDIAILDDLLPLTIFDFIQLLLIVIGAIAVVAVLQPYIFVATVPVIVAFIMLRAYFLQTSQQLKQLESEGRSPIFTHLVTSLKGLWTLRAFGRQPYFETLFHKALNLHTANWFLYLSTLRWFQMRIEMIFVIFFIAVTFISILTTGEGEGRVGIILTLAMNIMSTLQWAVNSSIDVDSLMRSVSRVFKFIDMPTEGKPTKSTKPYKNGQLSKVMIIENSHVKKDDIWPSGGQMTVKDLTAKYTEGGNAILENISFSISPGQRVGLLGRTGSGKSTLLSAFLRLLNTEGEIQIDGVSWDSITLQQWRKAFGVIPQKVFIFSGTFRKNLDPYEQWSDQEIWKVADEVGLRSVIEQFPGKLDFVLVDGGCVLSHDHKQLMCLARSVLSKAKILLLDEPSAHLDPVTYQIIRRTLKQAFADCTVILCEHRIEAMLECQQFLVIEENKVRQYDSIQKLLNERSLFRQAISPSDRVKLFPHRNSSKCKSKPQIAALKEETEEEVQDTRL
pEC50: −log10 of the molar value.

# smiles-text, pEC50
records = [
    ("CC(C)(O)C(=O)Nc1sc(S(=O)(=O)c2ccsc2C(F)(F)F)cc1C(N)=O", 6.44),
    ("CC(C)(O)C(=O)Nc1sc(S(=O)(=O)c2cc(F)ccc2Br)cc1C(N)=O", 6.34),
    ("CC(C)(O)C(=O)Nc1sc(S(=O)(=O)c2ccc(C(C)(C)C)cn2)cc1C(N)=O", 5.48),
    ("CC(C)(O)C(=O)Nc1sc(S(=O)(=O)c2ccccc2OC(F)(F)F)cc1C(N)=O", 7.43),
    ("CC(C)(O)C(=O)Nc1sc(S(=O)(=O)c2cc(F)ccc2Cl)cc1C(N)=O", 7.31),
    ("CC(C)(O)C(=O)Nc1sc(S(=O)(=O)c2ccc(OC(F)(F)F)cn2)cc1C(N)=O", 6.09),
    ("CC(C)(O)C(=O)Nc1sc(S(=O)(=O)c2ccc(C(F)(F)F)cn2)cc1C(N)=O", 6.49),
    ("CC(C)(O)C(=O)Nc1sc(S(=O)(=O)c2cc(Cl)ccc2OC(F)(F)F)cc1C(N)=O", 7.59),
]

====

target: CFTR-G178R (Homo sapiens, UniProt P13569, G178R); construct: expressed in transfected cells; assay: YFP-halide influx assay for the CFTR-G178R; type: cell-based
Sequence (P13569 whole entry G178R): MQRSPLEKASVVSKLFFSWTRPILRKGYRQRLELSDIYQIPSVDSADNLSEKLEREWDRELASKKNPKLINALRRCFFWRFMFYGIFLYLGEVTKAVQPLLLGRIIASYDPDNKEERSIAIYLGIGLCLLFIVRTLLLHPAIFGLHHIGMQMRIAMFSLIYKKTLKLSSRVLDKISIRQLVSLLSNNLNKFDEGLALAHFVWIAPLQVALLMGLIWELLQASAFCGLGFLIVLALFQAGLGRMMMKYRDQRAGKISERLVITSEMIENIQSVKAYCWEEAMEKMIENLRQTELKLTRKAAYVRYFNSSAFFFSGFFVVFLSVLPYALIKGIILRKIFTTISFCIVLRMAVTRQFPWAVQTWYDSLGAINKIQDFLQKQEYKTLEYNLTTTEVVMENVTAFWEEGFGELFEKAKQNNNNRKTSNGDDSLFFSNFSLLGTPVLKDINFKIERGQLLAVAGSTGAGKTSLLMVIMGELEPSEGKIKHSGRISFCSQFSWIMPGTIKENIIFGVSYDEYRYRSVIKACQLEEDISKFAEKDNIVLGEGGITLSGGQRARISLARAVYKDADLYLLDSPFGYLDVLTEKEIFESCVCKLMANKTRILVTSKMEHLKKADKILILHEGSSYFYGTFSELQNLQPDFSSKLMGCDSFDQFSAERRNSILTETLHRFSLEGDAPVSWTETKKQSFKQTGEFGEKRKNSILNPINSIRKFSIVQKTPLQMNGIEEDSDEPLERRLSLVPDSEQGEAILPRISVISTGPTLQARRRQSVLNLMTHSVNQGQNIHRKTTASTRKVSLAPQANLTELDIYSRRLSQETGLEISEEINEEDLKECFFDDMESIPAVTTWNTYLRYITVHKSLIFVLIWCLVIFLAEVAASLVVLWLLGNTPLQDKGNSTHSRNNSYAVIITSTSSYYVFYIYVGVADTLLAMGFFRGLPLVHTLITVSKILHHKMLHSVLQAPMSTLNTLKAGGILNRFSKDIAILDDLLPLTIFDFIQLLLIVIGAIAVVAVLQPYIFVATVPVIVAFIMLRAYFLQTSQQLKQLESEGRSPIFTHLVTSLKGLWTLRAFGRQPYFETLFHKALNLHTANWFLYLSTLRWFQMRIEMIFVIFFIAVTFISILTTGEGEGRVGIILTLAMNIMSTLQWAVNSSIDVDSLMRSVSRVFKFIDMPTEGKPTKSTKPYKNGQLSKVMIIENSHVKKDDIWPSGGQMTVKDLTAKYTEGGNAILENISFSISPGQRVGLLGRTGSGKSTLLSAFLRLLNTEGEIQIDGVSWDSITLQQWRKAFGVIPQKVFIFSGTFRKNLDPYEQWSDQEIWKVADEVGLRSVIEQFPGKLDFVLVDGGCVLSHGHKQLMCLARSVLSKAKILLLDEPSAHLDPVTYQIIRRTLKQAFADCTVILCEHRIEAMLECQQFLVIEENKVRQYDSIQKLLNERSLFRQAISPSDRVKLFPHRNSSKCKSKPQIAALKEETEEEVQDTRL
pEC50: −log10 of the molar value.
Recorded pEC50, one value per entry.
measured-quantity: pEC50

# compound, target-desc, data-value
measured = [
    ("CC(CO)C(=O)Nc1sc(S(=O)(=O)c2ccc(Cl)cc2OC(F)(F)F)cc1C(N)=O (centres unmarked)", "CFTR-G178R (Homo sapiens, UniProt P13569, G178R)", 7.06),
    ("CC(C)(O)C(=O)Nc1sc(S(=O)(=O)c2cc(Cl)cc(C(F)(F)F)c2)cc1C(N)=O", "CFTR-G178R (Homo sapiens, UniProt P13569, G178R)", 6.85),
    ("COc1cc(C#N)cc(S(=O)(=O)c2cc(C(N)=O)c(NC(=O)C(C)(C)O)s2)c1OC(F)F", "CFTR-G178R (Homo sapiens, UniProt P13569, G178R)", 6.60),
    ("NC(=O)c1cc(S(=O)(=O)c2ccc(F)cc2)sc1NC(=O)C1(CO)CC1", "CFTR-G178R (Homo sapiens, UniProt P13569, G178R)", 7.24),
    ("NC(=O)c1cc(S(=O)(=O)c2ccc(OC(F)(F)F)cc2F)sc1NC(=O)C1(CO)CC1", "CFTR-G178R (Homo sapiens, UniProt P13569, G178R)", 7.47),
    ("CC(C)(O)C(=O)Nc1sc(S(=O)(=O)c2cc(Cl)ccc2OC(F)(F)F)cc1C(N)=O", "CFTR-G178R (Homo sapiens, UniProt P13569, G178R)", 7.89),
    ("CC(C)(O)C(=O)Nc1sc(S(=O)(=O)c2ccc(OC(F)(F)F)cn2)cc1C(N)=O", "CFTR-G178R (Homo sapiens, UniProt P13569, G178R)", 6.21),
    ("CC(C)(O)C(=O)Nc1sc(S(=O)(=O)c2ccc(C(F)(F)F)nc2)cc1C(N)=O", "CFTR-G178R (Homo sapiens, UniProt P13569, G178R)", 7.04),
]
